- Assay: recombinant barcode read abundance after kanamycin selection (control-corrected) (log10(CPM+1)); higher = more efficient recombination; sequences stand for … in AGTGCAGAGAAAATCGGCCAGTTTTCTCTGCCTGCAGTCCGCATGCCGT…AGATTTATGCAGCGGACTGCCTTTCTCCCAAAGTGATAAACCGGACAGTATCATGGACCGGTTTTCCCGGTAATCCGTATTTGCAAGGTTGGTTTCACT; site = the 11-nt target
Quantity name: recombinant barcode read abundance (log10)

# Monomer sequence, Reported measurement
measured = [
    ("CCTCAGGCTTGGGTTCTAACCTGTTGCCA (site CCTCAGGCTAG)", 0.312),
    ("CTGGGAACTTGGGTTCTAACCTGTTGCAG (site CTCGGAACTAT)", 0.149),
    ("CTACGCTCTTGGGTTCTAACCTGTTGCAC (site CTACGGTCTGT)", 0.0577),
    ("CATGCTACTTGGGTTCTAACCTGTTGCGT (site CATGCTACTAC)", 0.41),
    ("TAAAGTACTTGGGTTCTAACCTGTTGCTT (site TAACGTACTAA)", 0.0583),
    ("TCGGACCCTTGGGTTCTAACCTGTTGCGA (site TCGGACCCTTC)", 2.73),
    ("GACGGTCCTTGGGTTCTAACCTGTTGCGG (site GATGGTCCTCC)", 0.418),
    ("TATGTGTCTTGGGTTCTAACCTGTTGCCT (site TAGGTGTCTAG)", 0.0112),
    ("ACAGTGTCTTGGGTTCTAACCTGTTGCGG (site ACACTGTCTCC)", 0.0611),
    ("CAAGTGCCTTGGGTTCTAACCTGTTGCCT (site CAAGTGCCTAG)", 2.01),
    ("TTACCTACTTGGGTTCTAACCTGTTGCCT (site TTACCCACTAG)", 0.0698),
    ("CATTTCTCTTGGGTTCTAACCTGTTGCCT (site CATTTCTCTAG)", 0.341),
    ("GAGCTGACTTGGGTTCTAACCTGTTGCCT (site GAGCCGACTAG)", 0.488),
    ("AACTTCACTTGGGTTCTAACCTGTTGCCT (site AACTTCCCTAG)", 0.013),
    ("GGTCAAACTTGGGTTCTAACCTGTTGCCT (site GGTCAAACTAG)", 0.492),
    ("TGGACCACTTGGGTTCTAACCTGTTGCCT (site TGGAACACTAG)", 0.0728),
    ("GTAGGGACTTGGGTTCTAACCTGTTGCCT (site GAAGGGACTAG)", 1.34),
    ("AGCAGTCCTTGGGTTCTAACCTGTTGCGT (site AGCAGTCCTAC)", 1.47),
    ("CTTTCCTCTTGGGTTCTAACCTGTTGCCT (site CTTTCCTCTAG)", 0.831),
    ("TCGTCTACTTGGGTTCTAACCTGTTGCTC (site ATCAACCCTTG)", 0.117),
    ("CTATGTGCTTGGGTTCTAACCTGTTGCGA (site CTATGTGCTTC)", 1.87),
    ("GGGCCTACTTGGGTTCTAACCTGTTGCTG (site GGGCCTACTGA)", 0.215),
    ("CCAGTCACTTGGGTTCTAACCTGTTGCCT (site CCAGTTACTAG)", 0.19),
    ("CTATTGTCTTGGGTTCTAACCTGTTGCGG (site CTATTGTCTGC)", 0.249),
    ("TAACCGTCTTGGGTTCTAACCTGTTGCAT (site TAACCGTCTAT)", 0.286),
    ("ACCTCAACTTGGGTTCTAACCTGTTGCCT (site ACCTCAACTAG)", 0.19),
    ("TTGGACACTTGGGTTCTAACCTGTTGCCT (site TTGGCCACTAG)", 0.0571),
    ("GACCGCGCTTGGGTTCTAACCTGTTGCCT (site GACCGGGCTAG)", 0.0432),
    ("CGACGAGCTTGGGTTCTAACCTGTTGCGG (site CGACGAGCTCC)", 1.22),
    ("AACGCCACTTGGGTTCTAACCTGTTGCCT (site AACGCCACTAG)", 0.0293),
    ("CGAACGACTTGGGTTCTAACCTGTTGCTT (site CGAACGACTAA)", 0.0324),
    ("TCAGAGCCTTGGGTTCTAACCTGTTGCTG (site TCATAGCCTCA)", 0.0059),
    ("TCTAGAACTTGGGTTCTAACCTGTTGCCT (site TCTAGAACTAG)", 0.0829),
    ("TTGTGTTCTTGGGTTCTAACCTGTTGCTT (site TTGTGTTCTAA)", 0.159),
    ("CTTTCGTCTTGGGTTCTAACCTGTTGCCT (site CTTTCACCTAG)", 0.0235),
    ("AAGTATTCTTGGGTTCTAACCTGTTGCGT (site AAGTATTCTAC)", 2.23),
    ("CTAGGTACTTGGGTTCTAACCTGTTGCTT (site ATAGGTACTAA)", 0.0337),
    ("GTCGTTACTTGGGTTCTAACCTGTTGCCT (site TAGCAATCTTA)", 0.22),
    ("GGGTCGCCTTGGGTTCTAACCTGTTGCTT (site CGGCCGCCTAA)", 0.364),
    ("TCCAAATCTTGGGTTCTAACCTGTTGCCT (site AGACTGACTCC)", 0.109),
    ("GCGCGAACTTGGGTTCTAACCTGTTGCCT (site GCACGAACTAG)", 0.733),
    ("ATACCATCTTGGGTTCTAACCTGTTGCCT (site ATTCCATCTAG)", 0.34),
]

----------
Reported values of recombinant UMI read abundance (log10) for individual entries
- Assay: recombinant UMI read abundance after kanamycin selection (control-corrected) (log10(CPM+1)); higher = more efficient recombination; extreme values may be limits of the assay; sequences stand for … in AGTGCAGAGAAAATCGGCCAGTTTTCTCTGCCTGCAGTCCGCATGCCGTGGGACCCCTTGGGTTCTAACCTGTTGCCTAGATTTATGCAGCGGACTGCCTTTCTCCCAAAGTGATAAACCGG…AGGTTGGTTTCACT; site = the 11-nt donor
Quantity name: recombinant UMI read abundance (log10)

# Monomer sequence, Reported measurement
measured = [
    ("AATGTAACATGGACCGGTTTTCCCGGTAATCCGTATTTGCT (site AATGTAACTCG)", 0.0789),
    ("TAGCGAACATGGACCGGTTTTCCCGGTAATCCGTATTTGGA (site TAGCGAACTTC)", 1.05),
    ("CCCTTCTCATGGACCGGTTTTCCCGGTAATCCGTATTTGGG (site ACCTTCTCTCC)", 0.00611),
    ("AAGGACACATGGACCGGTTTTCCCGGTAATCCGTATTTGAG (site AAGGACACTCT)", 2.09),
    ("ACACGAACATGGACCGGTTTTCCCGGTAATCCGTATTTGTC (site ACACGAACTTA)", 1.96),
    ("GCAGAGACATGGACCGGTTTTCCCGGTAATCCGTATTTGCG (site GCAGAGACTCG)", 2.45),
    ("AGCTCGGCATGGACCGGTTTTCCCGGTAATCCGTATTTGGG (site AGCTCCGCTCC)", 0.0225),
    ("AGCCTTTCATGGACCGGTTTTCCCGGTAATCCGTATTTGAC (site AGCCTTTCTAT)", 0),
    ("AGGCTCCCATGGACCGGTTTTCCCGGTAATCCGTATTTGTG (site AGGTTCCCTCA)", 0.0277),
    ("TTGCGCACATGGACCGGTTTTCCCGGTAATCCGTATTTGTG (site TTGCGCACTCA)", 0.0258),
    ("TCTTACACATGGACCGGTTTTCCCGGTAATCCGTATTTGCC (site TCTTACACTGG)", 0.565),
    ("CGGAATACATGGACCGGTTTTCCCGGTAATCCGTATTTGAT (site CGGAATACTAT)", 2.16),
    ("CATCGCACATGGACCGGTTTTCCCGGTAATCCGTATTTGGC (site CATCGCACTGC)", 2.26),
    ("GGCAATCCATGGACCGGTTTTCCCGGTAATCCGTATTTGAA (site GGCAATCCTTC)", 0.00387),
    ("ATCAAGACATGGACCGGTTTTCCCGGTAATCCGTATTTGCA (site ATCAAGACTTG)", 2.31),
    ("GCTTGCCCATGGACCGGTTTTCCCGGTAATCCGTATTTGAT (site GCTCGCCCTAT)", 0.249),
    ("GATTGGACATGGACCGGTTTTCCCGGTAATCCGTATTTGAG (site GATTGGACTGT)", 0),
    ("CGTGGAACATGGACCGGTTTTCCCGGTAATCCGTATTTGGT (site CGTGGAACTAT)", 1.26),
]
